Value source: patent US20230303994

target system: pre-pro-insulin glargine
In this section we review reported Purity Insulin Glargine values for a set of proteins.
The response must be a number in area % with no trailing unit.

Sample records with Purity Insulin Glargine:
| protein | Purity Insulin Glargine [area %] |
| --- | --- |
| trypsin variant SEQ ID NO: 73 (protein) IVGGYTCAANSIPYQVSLNSGSHRCGGSLINSQWVVSAAHCYKSRIQVRLGEHNIDVLEGNEQFINAAKIITHPNFNANTLDNDIMLIKLSSPATLNSRVATVSLPRSCAAAGTECLISGWGNTKSSGSSYPSLLQCLKAPVLSDSSCKSSYPGQITGNMICVGFLEGGKDACQGDSGGPVVCNGQLQGIVSSGYGCAQKNKPGVYTKVCNYVNWIQQTIAAN | 83 |
| trypsin variant SEQ ID NO: 118 (protein) IVGGYTCAANSIPYQVSLNSGSHRCGGSLINSQWVVSAAHCYKPRIQVRLGEHNIHVLEGNEQFINAAKIITHPNFNGNTLDNDIMLIKLSSPATLNSHVATVSLPTSCAAAGTECLISGWGNTASSGSSMPSLLQCLKAPVLSDSSCKSSYPGQITGNMICVGFLEGGADACQGDSGGPVVCNGQLQGIVSSGYGCAQKNKPGVYTKVCNYVNWIQQTIAAN | 87.6 |
| trypsin variant SEQ ID NO: 88 (protein) IVGGYTCAANSIPYQVSLNSGSHRCGGSLINSQWVVSAAHCYKPRIQVRLGEHNIHVLEGNEQFINAAKIITHPNFNPNTLDNDIMLIKLSSPATLNSHVATVSLPTSCAAAGTECLISGWGNTSSSGSSMPSLLQCLKAPVLSDSSCKSSYPGQITGNMICVGFLEGGKDSCQGDSGGPVVCNGQLQGIVSSGYGCAQKNKPGVYTKVCNYVNWIQQTIAAN | 84.3 |
| trypsin variant SEQ ID NO: 102 (protein) IVGGYTCAANSIPYQVSLNSGSHRCGGSLINSQWVVSAAHCYKPRIQVRLGEHNIHVLEGNEQFINAAKIITHPNFNPNTLDNDIMLIKLSSPATLNSHVATVSLPTSCAAAGTECLISGWGNTSSSGSSMPSLLQCLKAPVLSDSSCKSSYPGQITGNMICVGFLEGGADACQGDSGGPVVCNGQLQGIVSSGYGCAQKNKPGVYTKVCNYVNWIQQTIAAN | 88.7 |
| trypsin variant SEQ ID NO: 95 (protein) IVGGYTCAANSIPYQVSLNSGSHRCGGSLINSQWVVSAAHCYKPRIQVRLGEHNIHVLEGNEQFINAAKIITHPNFNPNTLDNDIMLIKLSSPATLNSHVATVSLPRSCAAAGTECLISGWGNTSSSGSSMPSLLQCLKAPVLSDSSCKSSYPGQITGNMICVGFLEGGADACQGDSGGPVVCNGQLQGIVSSGYGCAQKNKPGVYTKVCNYVNWIQQTIAAN | 90 |

Ask | What value of Purity Insulin Glargine has been reported for the following protein? trypsin variant SEQ ID NO: 99 (protein) IVGGYTCAANSIPYQVSLNSGSHRCGGSLINSQWVVSAAHCYKSRIQVRLGEHNIHVLEGNEQFINAAKIITHPNFNPNTLDNDIMLIKLSSPATLNSNVATVSLPTSCAAAGTECLISGWGNTSSSGSSYPSLLQCLKAPVLSDSSCKSSYPGQITGNMICVGFLEGGADACQGDSGGPVVCNGQLQGIVSSGYGCAQKNKPGVYTKVCNYVNWIQQTIAAN
Reply | 89.2

Ask | So what does the record say about Purity Insulin Glargine for trypsin variant SEQ ID NO: 109 (protein) IVGGYTCAANSIPYQVSLNSGSHRCGGSLINSQWVVSAAHCYKSRIQVRLGEHNIHVLEGNEQFINAAKIITHPNFNGNTLDNDIMLIKLSSPATLNSNVATVSLPTSCAAAGTECLISGWGNTCSSGSSMPSLLQCLKAPVLSDSSCKSSYPGQITGNMICVGFLEGGADACQGDSGGPVVCNGQLQGIVSSGYGCAQKNKPGVYTKVCNYVNWIQQTIAAN ?
Reply | 85.9

Ask | Returns the measured Purity Insulin Glargine for the input protein. Input: trypsin variant SEQ ID NO: 87 (protein) IVGGYTCAANSIPYQVSLNSGSHRCGGSLINSQWVVSAAHCYKPRIQVRLGEHNIHVLEGNEQFINAAKIITHPNFNPNTLDNDIMLIKLSSPATLNSHVATVSLPTSCAAAGTECLISGWGNTSSSGSSMPSLLQCLKAPVLSDSSCKSSYPGQITGNMICVGFLEGGKDACQGDSGGPVVCNGQLQGIVSSGYGCAQKNKPGVYTKVCNYVNWIQQTIAAN
Reply | 83.8

Ask | May I ask what Purity Insulin Glargine has been recorded for trypsin variant SEQ ID NO: 117 (protein) IVGGYTCAANSIPYQVSLNSGSHRCGGSLINSQWVVSAAHCYKPRIQVRLGEHNIHVLEGNEQFINAAKIITHPNFNGNTLDNDIMLIKLSSPATLNSNVATVSLPTSCAAAGTECLISGWGNTASSGSSMPSLLQCLKAPVLSDSSCKSSYPGQITGNMICVGFLEGGKDACQGDSGGPVVCNGQLQGIVSSGYGCAQKNKPGVYTKVCNYVNWIQQTIAAN ?
Reply | 85

Ask | Name the reported Purity Insulin Glargine value associated with the protein trypsin variant SEQ ID NO: 115 (protein) IVGGYTCAANSIPYQVSLNSGSHRCGGSLINSQWVVSAAHCYKPRIQVRLGEHNIHVLEGNEQFINAAKIITHPNFNGNTLDNDIMLIKLSSPATLNSNVATVSLPTSCAAAGTECLISGWGNTSSSGSSMPSLLQCLKAPVLSDSSCKSSYPGQITGNMICVGFLEGGKDACQGDSGGPVVCNGQLQGIVSSGYGCAQKNKPGVYTKVCNYVNWIQQTIAAN
Reply | 83.5
